- Test system: MS2 coat protein
- experiment-description: apparent KD of MS2 coat protein; higher = weaker reporter binding
- test-conditions: Eterna round: R107; input ligand: tryptophan 2.4 mM
measure-name: apparent KD of MS2 coat protein (nM)
Supply the numeric figure in nM, leaving out any unit text.

Example entries and their recorded answers appear below.
1. UCGCUCUGGGUGGAAUCCGGAGAUGUGGAAGGAGCGCUCGAAAGGGCAGGUAGGUCGCCAACGGACAUGAGGAUCACCCAUGUAC [#23 Same State - Arginine A] = 49.2
2. AUAUUAAUCGGAAGGAGCGGUACAUGAGGAUCACCCAUGUGUGAAGCGAGCAGAUCCCGUUACCAGGUAGGUCGCCGAGUUAUGA [XArg-B6] = 148

### Prompt Record request: apparent KD of MS2 coat protein value, item GAGGGUGAAUCUCUGGUCCGUUUGACGGAUACCAGCGAGAGGUAUCGCCCUUGGCAGCCGACGACAUGAGGAUCACCCAUGUUAA [#08 Exclusion-TheophyllineA]
### Response 18

### Prompt So what does the record say about apparent KD of MS2 coat protein for GCACCAGGUACGGAUACCAGCUGCUCGAGAUACAUGAGGAUCACCCAUGUGACCUGGUUUAGCCCUUGGCAGCUGUACCUGGUGC [#15 Same State - Theophylline B] ?
### Response 17.2

### Prompt Quick one: apparent KD of MS2 coat protein for `GGACUAACCAGAAGGAGCGACACGCAGAAACUGCAAAAUCCUCCGCACGAGGAUCACCCGUGUCAGGUAGGUCGCUGGUUAGUCG` ?
### Response 49.7

### Prompt Reported apparent KD of MS2 coat protein, sequence `GGGUACAUCGCGGCCGCCACUGAUGUAAAUACAUGAGGAUCACCCAUGUCGAUGGAGACAUCGGCCAGGACCGGGUGAUGUACCG` : ____
### Response 11.6

### Prompt Endpoint output: apparent KD of MS2 coat protein of UGACAUGAGGAUCACCCAUGUAUAACUGAAGGAGCGUCCAUAAGGACAGGUAGGUCGCGGAAUGAACAGAGUGCACGACAUGUUU [Arg A SS t1] . Value?
### Response 14.2

### Prompt Which apparent KD of MS2 coat protein is listed for UCGGGCAGAGCGGCCGCCACUGUUUGGCGUGCGGAUGACGGAACAUGAGGAUCACCCAUGUUGAUUAGGACCGGGCUUGCGGAGA [qpqullin] ?
### Response 14.7

### Prompt Look up apparent KD of MS2 coat protein for this sequence: UGUAUGGACUGAAGGAGCGCCUCAAACAUGAGGAUCACCCAUGUGGACAAAUAAGUCCUUGGGCAGGUAGGUCGCAGUCCAUACU [ArgBX 7 #StaticStem #MS2Late]
### Response 66.1

### Prompt Value lookup for apparent KD of MS2 coat protein; key = CAUCCACCUGAAGCCUCCCAAUUCCUCGAUACCAGAGGAUUAAGACUCCCUUGGCAGCGAGCUACAUGAGGAUCACCCAUGUGCC [theeternabot_exclusion_MS2_Theo_A_32]
### Response 18.2

### Prompt Returns the measured apparent KD of MS2 coat protein for the input sequence. Input: `GGGUACAUCGCGGCCGCCACUCAUGUAAAUUCAUGAGGAUCACCCAUGACGAUGGAGACAUCGGAGAGGACCGGGUGAUGUACCG`
### Response 16.8

### Prompt Need apparent KD of MS2 coat protein, item `UGUAUGGACUGAAGGAGCGGGUAAAUAACCUGAGGAUCACCCAGGUAAAAGGCGAAAGCCACCCAGGUAGGUCGCAGUCCAUACU`
### Response 11

### Prompt # get_value(readout='apparent KD of MS2 coat protein', item= GGGUAAGAUCCGGAUACCAGCGAACAUGAGGAUCACCCAUGUGACCUAAGAUAGGCUAAACGCCCUUGGCAGCCGAGAUAGCGUU [Same State Theophylline B GF 6] )
### Response 39.5
